ASSAYED_TARGET: H156Y-1 mutant of 3β-HSD1 (Homo sapiens, UniProt P14060, H157Y)
Sequence (P14060 1-373 H157Y): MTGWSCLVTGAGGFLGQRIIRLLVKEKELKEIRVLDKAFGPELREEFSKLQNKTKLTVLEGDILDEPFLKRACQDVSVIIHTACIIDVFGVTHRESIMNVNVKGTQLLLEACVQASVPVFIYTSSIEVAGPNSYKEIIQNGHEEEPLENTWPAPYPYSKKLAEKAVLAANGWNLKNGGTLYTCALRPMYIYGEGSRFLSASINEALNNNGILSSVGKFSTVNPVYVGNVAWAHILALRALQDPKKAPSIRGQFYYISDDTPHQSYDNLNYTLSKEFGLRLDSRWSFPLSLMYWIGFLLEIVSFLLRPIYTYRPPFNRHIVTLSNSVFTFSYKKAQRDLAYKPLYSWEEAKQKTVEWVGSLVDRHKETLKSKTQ
PROCEDURE_TEXT: Inhibition of 3β-HSD activity of purified enzyme, Dixon analysis
MEASURED_QUANTITY: Ki (nM)

> print(dat)
                                   molecule                            assayed.target  observed.measurement
1  C[C@]1(O)CC[C@H]2[C@@H]3CC[C@@]45O[C@]4(C)C(O)=C(C#N)C[C@]5(C)[C@H]3CC[C@@]21C  H156Y-1 mutant of 3β-HSD1 (Homo sapiens, UniProt P14060, H157Y)                  1180

###

ASSAYED_TARGET: human 3β-HSD1 (Homo sapiens, UniProt P14060)
pKi: −log10 of the molar value.
MEASURED_QUANTITY: pKi

> print(dat)
                                   molecule  observed.measurement
1  C[C@]1(O)CC[C@H]2[C@@H]3CC[C@@]45O[C@]4(C)C(O)=C(C#N)C[C@]5(C)[C@H]3CC[C@@]21C                  7.15

###

System: MCF-7 Tet-off 3β-HSD2 aromatase cells
PROCEDURE_TEXT: Inhibition of DHEA-stimulated proliferation
Format: cell-based, human
EXPERIMENTAL_CONDITIONS: Homo sapiens, MCF7, 240 h, read-out: IC50, proliferation
pIC50: −log10 of the molar value.
Listed here: items and their measured pIC50.
MEASURED_QUANTITY: pIC50

> print(dat)
                                   molecule                         assayed.target  observed.measurement
1  N#Cc1ccc(C(c2ccc(C#N)cc2)n2cncn2)cc1 [letrozole]  MCF-7 Tet-off 3β-HSD2 aromatase cells                  9.05
2  C[C@]12CC[C@H]3[C@@H](CC[C@@]45O[C@@H]4C(O)=C(C#N)C[C@]35C)[C@@H]1CC[C@@H]2O [trilostane]  MCF-7 Tet-off 3β-HSD2 aromatase cells                  5.31
